- System: Puccinia recondita f. sp. tritici (the causal agent of wheat leaf rust)
- METHOD NOTES: Test C: preventive spray on wheat seedlings, wheat leaf rust, visual disease rating
- Assay type: in vivo
- RECORDED CONDITIONS: test suspension 10 ppm; wheat seedlings
REPORTED METRIC: Test C disease control rating

Record excerpt, results attached:
FC(F)(F)c1nc(-c2ccc(Cn3ccc4ccccc43)s2)no1 :: 93%
CC(C)OC(=O)c1cnn(Cc2ccc(-c3noc(C(F)(F)F)n3)s2)c1 :: 100%
CC(C)ONC(=O)c1cnn(Cc2ccc(-c3noc(C(F)(F)F)n3)cc2)c1 :: 100%
N#CCCCOC(=O)c1cnn(Cc2ccc(-c3noc(C(F)(F)F)n3)cc2)c1 :: 100%
N#CCNC(=O)c1cccc(Cc2ccc(-c3noc(C(F)(F)F)n3)cc2)c1 :: 97%
CCOC(=O)c1cnn(CCOc2ccc(-c3noc(C(F)(F)F)n3)cc2)c1 :: 0%
CCCOC(=O)c1cnn(COc2ccc(-c3noc(C(F)(F)F)n3)cc2)c1 :: 86%
C=C(Br)COC(=O)c1cnn(Cc2ccc(-c3noc(C(F)(F)F)n3)cc2)c1 :: 100%

Readout Test C disease control rating for O=C(NC1CC1)c1coc(Cc2ccc(-c3noc(C(F)(F)F)n3)cc2)n1 , test system Puccinia recondita f. sp. tritici (the causal agent of wheat leaf rust), was 100%

Readout Test C disease control rating for NC(=O)c1coc(Cc2ccc(-c3noc(C(F)(F)F)n3)cc2)n1 , test system Puccinia recondita f. sp. tritici (the causal agent of wheat leaf rust), was 100%

Readout Test C disease control rating for O=C(c1coc(Cc2ccc(-c3noc(C(F)(F)F)n3)cc2)n1)N1CCOCC1 , test system Puccinia recondita f. sp. tritici (the causal agent of wheat leaf rust), was 94%

Readout Test C disease control rating for Cc1nn(Cc2ccc(-c3noc(C(F)(F)F)n3)cc2)c2cccc(Br)c12 , test system Puccinia recondita f. sp. tritici (the causal agent of wheat leaf rust), was 55%
